# testSystem: LTD4 receptor (Cavia porcellus, UniProt Q2NNR5)
# Construct: guinea pig pulmomembranous protein; from tissue; host or cells: guinea pig lung membranes
# testName: LTD4 receptor binding inhibition test ([^3 H]leukotriene D4, guinea pig pulmomembranous protein)
# testContext: read-out: LTD4 receptor, dissociation constant KD
Each item that follows carries a reported Kd.
I only need the number, in nM, no unit after it.

Would you please look over these solved cases?
> print(dat)
                                   compound                                testsystem  readout  unit  measuredvalue
1  Cc1ccc(OCc2cccc(OCc3ccc4ccccc4n3)c2)c2c1NC(=O)C2(C)C [Example 13]  LTD4 receptor (Cavia porcellus, UniProt Q2NNR5)       Kd    nM            303
2  O=C1CCc2ccc(OCc3cccc(OCc4ccc5ccc(Cl)cc5n4)c3)cc2N1 [Example 31]  LTD4 receptor (Cavia porcellus, UniProt Q2NNR5)       Kd    nM            304
3  CC1(C)C(=O)Nc2c(OCc3ccc(OCc4ccc5ccccc5n4)cc3)cccc21 [Example 30]  LTD4 receptor (Cavia porcellus, UniProt Q2NNR5)       Kd    nM            200
4  O=C1CCc2ccc(OCc3cccc(OCc4ncc5ccccc5n4)c3)cc2N1 [Example 34]  LTD4 receptor (Cavia porcellus, UniProt Q2NNR5)       Kd    nM            196
5  O=C1CCc2ccc(OCc3cccc(OCc4ccc5ccccc5n4)c3)cc2N1 [Example 7]  LTD4 receptor (Cavia porcellus, UniProt Q2NNR5)       Kd    nM            209

Record summary for O=C1CCCc2cc(OCc3cccc(OCc4ncc5ccccc5n4)c3)ccc2N1 [Example 82] : reported Kd = 60

Record summary for CCOCCn1c(COc2cccc(COc3ccc4c(c3)SCC(=O)N4)c2)nc2ccccc21 [Example 44] : reported Kd = 6300

Record summary for O=C1CSc2cc(OCc3cccc(OCc4ccc5ccc(Cl)cc5n4)c3)ccc2N1 [Example 32] : reported Kd = 109

====

Each item that follows carries a reported inhibition at 10 µM.
# testSystem: H1 receptor (Cavia porcellus, UniProt P31389)
# Construct: guinea pig cerebromembranous protein; from tissue; host or cells: guinea pig cerebral (brain) membranes
# Sequence (P31389 whole entry): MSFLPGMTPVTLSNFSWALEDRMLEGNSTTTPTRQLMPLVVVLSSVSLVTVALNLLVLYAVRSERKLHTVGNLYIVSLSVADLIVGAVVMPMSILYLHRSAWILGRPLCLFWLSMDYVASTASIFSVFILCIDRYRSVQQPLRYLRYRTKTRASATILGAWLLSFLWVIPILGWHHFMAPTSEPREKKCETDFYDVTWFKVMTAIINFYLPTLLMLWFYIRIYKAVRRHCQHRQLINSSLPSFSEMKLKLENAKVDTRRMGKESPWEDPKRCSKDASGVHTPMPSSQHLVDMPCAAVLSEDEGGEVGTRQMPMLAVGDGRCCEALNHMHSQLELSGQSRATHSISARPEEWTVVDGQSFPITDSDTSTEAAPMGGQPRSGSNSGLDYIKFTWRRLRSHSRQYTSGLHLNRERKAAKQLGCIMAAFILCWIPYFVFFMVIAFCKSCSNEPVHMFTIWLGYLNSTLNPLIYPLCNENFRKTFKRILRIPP
# testName: H1 receptor binding inhibition test ([^3 H]mepyramin, guinea pig cerebromembranous protein)
# testContext: b: 10 μM; read-out: H1 receptor (%), inhibition rate
I only need the number, in %, no unit after it.

Would you please look over these solved cases?
> print(dat)
                                   molecule  measuredvalue
1  O=C1CCCc2cc(OCc3cccc(OCc4ncc5ccccc5n4)c3)ccc2N1 [Example 82]              5
2  O=C1CCc2cc(OCc3cccc(OCc4ccc5ccccc5n4)c3)ccc2N1 [Example 6]             18
3  CN(Cc1cccc(OCc2ccc3ccccc3n2)c1)c1ccc2c(c1)SCC(=O)N2C [96(b)]             14
4  O=C1NCCCc2cc(OCc3cccc(OCc4ncc5ccccc5n4)c3)ccc21 [Example 86]              9
5  O=C1CSc2cc(NCc3cccc(OCc4ccc5ccccc5n4)c3)ccc2N1 [Example 94]             37

Record summary for Cn1c(COc2cccc(COc3ccc4c(c3)CCCC(=O)N4)c2)nc2ccccc21 [Example 83] : reported inhibition at 10 µM = 0

Record summary for O=C1CCCc2cc(OCc3cccc(OCc4ccc5ccccc5n4)c3)ccc21 [Example 89] : reported inhibition at 10 µM = 6

Record summary for O=C1CSc2c(NCc3cccc(OCc4ccc5ccccc5n4)c3)cccc2N1 [Example 95] : reported inhibition at 10 µM = 33

Record summary for CN1C(=O)CSc2c(NCc3cccc(OCc4ccc5ccccc5n4)c3)cccc21 [Example 97] : reported inhibition at 10 µM = 7

====

Each item that follows carries a reported pKd.
# testSystem: LTD4 receptor (Cavia porcellus, UniProt Q2NNR5)
# Construct: guinea pig pulmomembranous protein; from tissue; host or cells: guinea pig lung membranes
# Sequence (Q2NNR5 1-340): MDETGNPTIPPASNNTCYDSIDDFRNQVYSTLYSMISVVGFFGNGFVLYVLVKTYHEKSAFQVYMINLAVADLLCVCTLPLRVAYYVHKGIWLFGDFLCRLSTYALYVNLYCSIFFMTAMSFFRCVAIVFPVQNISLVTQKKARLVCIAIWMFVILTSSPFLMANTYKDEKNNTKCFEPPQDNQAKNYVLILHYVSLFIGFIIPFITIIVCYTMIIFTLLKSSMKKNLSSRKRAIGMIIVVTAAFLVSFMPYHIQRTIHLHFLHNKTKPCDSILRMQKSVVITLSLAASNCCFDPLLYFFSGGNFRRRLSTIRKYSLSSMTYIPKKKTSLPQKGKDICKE
# testName: LTD4 receptor binding inhibition test ([^3 H]leukotriene D4, guinea pig pulmomembranous protein)
# testContext: read-out: LTD4 receptor, dissociation constant KD
# Procedure: 2) LTD4 Receptor Binding Inhibition Test An ice-cooled tris hydrochloride/sodium chloride buffer (10 mM/100 mM, pH 7.5) was added to terminate the reaction, followed by immediate filtration through a Wattman CF/C filter. The filter was washed twice with 20 ml aliguots of the ice-cooled buffer. The radioactivity of the residue was measured by a liquid scintillation counter. […] In a binding assay, 2 μM leukotriene D4 was used for the measurement of a nonspecific binding.
Scale note: pKd = -log10(concentration in M).

Would you please look over these solved cases?
> print(dat)
                      structuresmilesstring  measuredvalue
1  CCCCCCc1cc(OCc2cccc(OCc3ccc4ccccc4n3)c2)cc2c1C(C)(C)C(=O)N2           5.60
2  O=C1CSc2cc(NC(=O)c3cccc(OCc4ccc5ccccc5n4)c3)ccc2N1           7.34
3  CC1(C)C(=O)Nc2cc(OCc3ccc(OCc4ccc5ccccc5n4)cc3)ccc21           5.85
4  O=C1CSc2c(NCc3cccc(OCc4ccc5ccccc5n4)c3)cccc2N1           6.22
5  O=C1CCc2ccc(OCc3ccc(OCc4ncc5ccccc5n4)cc3)cc2N1           6.68
6  O=C1CSc2cc(OCc3cccc(OCc4nc5ccccc5s4)c3)ccc2N1           5.86

Record summary for CC1(C)C(=O)Nc2cc(OC(=O)c3cccc(OCc4ccc5ccccc5n4)c3)ccc21 : reported pKd = 6.65

Record summary for Cn1c(COc2ccc(COc3ccc4c(c3)SCC(=O)N4)cc2)nc2ccccc21 : reported pKd = 6.52

====

# testSystem: H1 receptor (Cavia porcellus, UniProt P31389)
# Construct: guinea pig cerebromembranous protein; from tissue; host or cells: guinea pig cerebral (brain) membranes
# testName: H1 receptor binding inhibition test ([^3 H]mepyramin, guinea pig cerebromembranous protein)
# testContext: read-out: H1 receptor, dissociation constant KD
Each item that follows carries a reported Kd.
I only need the number, in µM, no unit after it.

Would you please look over these solved cases?
> print(dat)
                      structuresmilesstring  measuredvalue
1  O=C1CCc2ccc(OCc3cccc(OCc4ccc5ccc(Cl)cc5n4)c3)cc2N1           19.8
2  O=C1CCCc2cc(OCc3cccc(OCc4ccc5ccccc5n4)c3)ccc2N1           47.6
3  Cc1ccc(OCc2ccc(OCc3nc4ccccc4n3C)cc2)c2c1NC(=O)C2(C)C           37.4
4  O=C1CCCc2cc(OC(=O)c3cccc(OCc4ccc5ccccc5n4)c3)ccc2N1           57.9
5  CCOCCn1c(COc2cccc(COc3ccc4c(c3)SCC(=O)N4)c2)nc2ccccc21           8.67

Record summary for O=C1CCCc2cc(OCc3ccc(OCc4ccc5ccccc5n4)cc3)ccc2N1 : reported Kd = 57.8

Record summary for O=C1CCc2ccc(OCc3ccc(OCc4nc5ccccc5s4)cc3)cc2N1 : reported Kd = 83.6

Record summary for O=C1CSc2cc(N=Cc3ccc(OCc4ccc5ccccc5n4)cc3)ccc2N1 : reported Kd = 0.12

Record summary for O=C1CCS(=O)(=O)c2cc(OCc3cccc(OCc4ccc5ccccc5n4)c3)ccc2N1 : reported Kd = 122

Record summary for O=C1NCCCc2cc(OCc3cccc(OCc4ccc5ccccc5n4)c3)ccc21 : reported Kd = 66.4

Record summary for O=C1CSc2cc(N=Cc3cccc(OCc4ccc5ccccc5n4)c3)ccc2N1 : reported Kd = 0.12

====

# testSystem: LTD4 receptor (Cavia porcellus, UniProt Q2NNR5)
# Construct: guinea pig pulmomembranous protein; from tissue; host or cells: guinea pig lung membranes
# Sequence (Q2NNR5 1-340): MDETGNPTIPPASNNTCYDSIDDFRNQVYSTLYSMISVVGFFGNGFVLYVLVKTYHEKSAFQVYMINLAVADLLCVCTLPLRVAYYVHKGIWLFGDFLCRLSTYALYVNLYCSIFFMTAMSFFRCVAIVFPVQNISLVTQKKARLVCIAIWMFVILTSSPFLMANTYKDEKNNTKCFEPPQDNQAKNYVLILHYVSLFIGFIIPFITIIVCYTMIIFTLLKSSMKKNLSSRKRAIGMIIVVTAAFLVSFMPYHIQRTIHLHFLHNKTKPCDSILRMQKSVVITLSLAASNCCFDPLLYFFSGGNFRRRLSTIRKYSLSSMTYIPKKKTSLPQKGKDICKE
# testName: LTD4 receptor binding inhibition test ([^3 H]leukotriene D4, guinea pig pulmomembranous protein)
# testContext: read-out: LTD4 receptor, dissociation constant KD
readout: log10 of Kd (log10 of the value in nM)
All values: base-10 log of Kd in nM.

Would you please look over these solved cases?
> print(dat)
                      structuresmilesstring      readout  measuredvalue
1  Cc1ccc(OC(=O)c2cccc(OCc3ccc4ccccc4n3)c2)c2cc(C#N)c(=O)[nH]c12  log10 of Kd           1.20
2  CC1(C)C(=O)Nc2c(OC(=O)c3ccc(OCc4ccc5ccccc5n4)cc3)cccc21  log10 of Kd           2.52
3  O=C1NCCCc2cc(OCc3cccc(OCc4ncc5ccccc5n4)c3)ccc21  log10 of Kd           1.97

Record summary for O=C1CCc2ccc(OCc3ccc(OCc4ccc5ccccc5n4)cc3)cc2N1 : reported log10 of Kd = 2.70

Record summary for O=C1CSc2cc(OCc3cccc(OCc4ncc5ccccc5n4)c3)ccc2N1 : reported log10 of Kd = 0.99

Record summary for O=C1CCCc2cc(OCc3ccc(OCc4ccc5ccccc5n4)cc3)ccc2N1 : reported log10 of Kd = 2.11
